# measuredTarget: aldose reductase (Rattus norvegicus)
measurementKind: pIC50
Value format note: pIC50 is -log10 of concentration (mol/L); just state the number.

Exercise: Answer briefly: pIC50 recorded on aldose reductase (Rattus norvegicus) for COc1ccc(C2SC(=O)NC2=O)cc1C(=O)NCc1ccc(C(F)(F)F)cc1 (stereo not shown) [Example 16]
Key: 7.64

Where do the numbers come from? From patent US5948803A.
